- experiment.notes: Hepatocyte stability, beagle dog
- Type: in vitro ADME
- condition.label: beagle dog hepatocytes, 0.5 million cells/ml
Counter-ions that a name gives are not always drawn.
attribute.measured: half-life at 2 μM
Give the number first and the unit second.

[in] # return recorded half-life at 2 μM for entry CCS(=O)(=O)Nc1cccc(Cc2c(CN3CCNCC3)c3cc(Cl)c(OC(=O)N(C)C)cc3oc2=O)c1Cl [Compound 257, hydrochloride]
[out] 1.88 h

[in] Quickly give me recorded half-life at 2 μM for `CNS(=O)(=O)Nc1cccc(Cc2c(CN(C)C)c3ccc(OC(=O)N(C)C)cc3oc2=O)c1Cl`
[out] 2.12 h

[in] Consider the molecule CNS(=O)(=O)Nc1cccc(Cc2c(CN3CCNCC3)c3cc(Cl)c(OC(=O)N(C)C)cc3oc2=O)c1Cl [Compound 256, hydrochloride] . State its measured half-life at 2 μM.
[out] 2.98 h

[in] Indicate its recorded half-life at 2 μM; the molecule in question is `CCN(C)Cc1c(Cc2cccc(NS(=O)(=O)NC)c2Cl)c(=O)oc2cc(OC(=O)N(C)C)ccc12`
[out] 0.953 h

[in] Name the recorded half-life at 2 μM of the molecule listed here: CNS(=O)(=O)Nc1cccc(Cc2c(CN3CCNCC3)c3ccc(OC(=O)N(C)C)cc3oc2=O)c1Cl [Compound 246, hydrochloride]
[out] 6.07 h

[in] Identify measured half-life at 2 μM associated with `CCN(C)Cc1c(Cc2cccc(NS(=O)(=O)NC)c2F)c(=O)oc2cc(OC(=O)N(C)C)c(F)cc12`
[out] 1.19 h
